- System: PC-3 prostate
- EXPERIMENTAL_DETAILS: NCI tumour cell line growth inhibition, 48 h; in the data active = GI50 below about 0.43 µM; inactive = the rest
Respond with a class label; see active, inactive

Example entries and their recorded answers appear below.
>>> label_class("N#Cc1c(SCc2ccccc2)nc2[nH]c(=S)[nH]c(=S)c2c1-c1ccco1")
"inactive"
>>> label_class("CNC(=O)c1ccc(Nc2nc(OC3CCCC3)c3c(-c4ccc5nc(C)oc5c4)c[nH]c3n2)c(OC)c1")
"inactive"
>>> label_class("COc1cc(/C=C/C(=O)CC(=O)/C=C/c2ccc(OC(=O)CCNC34CC5CC(CC(C5)C3)C4)c(OC)c2)ccc1OC(=O)CCNC12CC3CC(CC(C3)C1)C2")
"inactive"

What is the recorded call for this compound in the test? COc1cc2c(cc1OCCCCCN1CCN(c3cc(=O)oc4c(C)c(OC)ccc34)CC1)N=C[C@@H]1CCCN1C2=O
active

What is the recorded call for this compound in the test? Cc1ccc(-c2nc3nc(-c4ccc(Cl)cc4)nc(N4CCCNCC4)c3o2)cc1
inactive

What is the recorded call for this compound in the test? N#C/C(=C\c1ccc(Br)cc1)n1nnc2cc(F)c(F)cc21
inactive

What is the recorded call for this compound in the test? COc1cc(-c2ccc(-[n+]3nc(-c4ccc([N+](=O)[O-])cc4)nn3-c3ccc([N+](=O)[O-])cc3)c(OC)c2)ccc1-[n+]1nc(-c2ccc([N+](=O)[O-])cc2)nn1-c1ccc([N+](=O)[O-])cc1
inactive

What is the recorded call for this compound in the test? CC1=Cc2cc3[n-]c(cc4nc(cc5[n-]c(cc1n2)c(C)c5CCC(=O)O)C(CCC(=O)O)=C4C)cc3C.[Cu+2]
inactive

What is the recorded call for this compound in the test? COc1ccc(C(=O)c2ccc(OC)cc2OC)cc1
inactive

What is the recorded call for this compound in the test? CCC(=O)Nc1ccc2c(c1)CN1C(=O)c3ccccc3C1=N2
inactive

What is the recorded call for this compound in the test? COc1cc2c3c(n(CCCn4ccnc4)c(=O)c2cc1OC)-c1ccccc1C3=O
active

What is the recorded call for this compound in the test? COc1cc(N)ccc1Nc1c2ccccc2nc2ccccc12
inactive

----------
- Test system: NCI-H460 lung
- EXPERIMENTAL_DETAILS: NCI tumour cell line growth inhibition, 48 h
MEASURED_QUANTITY: TGI

Before answering, review these 8 worked examples.
>>> reported("Cc1cccc(NC(=O)CSc2nnc(Cc3ccccc3)o2)c1")
"> 100 µM"
>>> reported("O=c1[nH]c2nccn2c(Cl)c1Br")
"> 100 µM"
>>> reported("CC(=O)Oc1cc2c(=O)oc3c(OC(C)=O)c(OC(C)=O)c(OC(C)=O)c4c(=O)oc(c1OC(C)=O)c2c34")
"> 100 µM"
>>> reported("Cc1ncc([N+](=O)[O-])n1CC(O)Cn1cnc([N+](=O)[O-])n1 (stereo unspecified)")
"> 100 µM"
>>> reported("C=C1C(=O)O[C@H]2[C@H]1CC/C(COC(=O)N[C@@H](Cc1c[nH]c3ccccc13)C(=O)OC)=C\\CC[C@@]1(C)O[C@@H]21")
"12.6 µM"
>>> reported("CC(=O)C1=C(O)C2(O)C(=O)c3c(c(C)c4ccc(C)c(O)c4c3O)CC2C(N)C1=O (stereo unspecified)")
"9.2 µM"
>>> reported("CC1C(c2ccccc2)=CCON1c1ccccc1 (stereo unspecified)")
"> 100 µM"
>>> reported("COC(=O)c1cccc(C)c1C1CN=NC12Cc1c(ccc(C)c1C)C2=O (stereo unspecified)")
"> 100 µM"

Fill in the recorded TGI for this molecule, with NCI-H460 lung as test system: CCC12CC[C@H](C#N)N3CCc4c(n(c5ccccc45)C(=O)C1)C32 (stereo partly specified)
33.8 µM

Fill in the recorded TGI for this molecule, with NCI-H460 lung as test system: Cc1cc2c(cc1Cl)SC(NNC(=O)c1ccncc1)=NS2(=O)=O
> 10 µM

----------
- System: NCI-H460 lung
- EXPERIMENTAL_DETAILS: NCI tumour cell line growth inhibition, 48 h
MEASURED_QUANTITY: TGI

Before answering, review these 5 worked examples.
>>> reported("O=C(n1[nH]c(=O)n(-c2ccc([N+](=O)[O-])cc2)c1=O)C(Cl)(Cl)Cl")
"> 75 µM"
>>> reported("O=C(NN1C(=O)/C(=C/c2ccc(Cl)cc2)N=C1c1ccccc1)c1c(Cl)c(Cl)c(Cl)c(Cl)c1-c1nc2ccccc2[nH]1")
"16.2 µM"
>>> reported("CC1N(O)C(c2ccccc2)C(c2ccccc2)=[N+]1[O-] (stereo not given)")
"> 100 µM"
>>> reported("COc1ccc(C(=O)O)c2c(=O)c3ccccc3[nH]c12")
"> 100 µM"
>>> reported("Cn1cc(C(=O)/C(Cl)=C(\\Cl)C(=O)O)c2ccccc21")
"> 100 µM"

// returns reported TGI for input CN1CCC23c4ccccc4NC1C21CCN(C)C3Nc2ccccc21
> 375 µM

// returns reported TGI for input N#CCc1[nH]nc2nc(SCc3ccccc3)nc(N3CCCCC3)c12
37.9 µM

// returns reported TGI for input Cc1nn(-c2ccccc2)c2nc3c(c(C)nn3-c3ccccc3)c(-c3ccccc3Br)c12
> 100 µM

----------
- Test system: DLD-1 colon
- EXPERIMENTAL_DETAILS: NCI tumour cell line growth inhibition, 48 h
Each item that follows carries a reported TGI.

Before answering, review these 3 worked examples.
>>> reported("O=C1C(Br)=C(c2ccccc2)C(c2ccccc2)=C1c1ccccc1")
"3.66 µM"
>>> reported("NC1=NN(c2ccccc2)C(=O)C1C(=O)C(=O)Nc1cccc(C(F)(F)F)c1 (configuration not stated)")
"> 100 µM"
>>> reported("CC1CC(C)C(=O)C(C(=O)CC2CC(=O)NC2=O)C1 (configuration not stated)")
"> 100 µM"

// returns reported TGI for input CCC[CH2][Sn]([CH2]CCC)([O]C(=O)c1cccc(F)c1F)[O][Sn]([CH2]CCC)([CH2]CCC)[O]C(=O)c1cccc(F)c1F
0.744 µM

// returns reported TGI for input c1ccc2c(NCCCCCCCCNc3cccc4ccccc34)cccc2c1
> 100 µM

// returns reported TGI for input C1=Cc2nc1c(-c1ccccc1)c1ccc([n-]1)c(-c1ccccc1)c1nc(c(-c3ccccc3)c3ccc([n-]3)c2-c2ccccc2)C=C1.[Zn+2]
> 100 µM

// returns reported TGI for input O[C@H]1[C@H]2[C@H](O)CCCN2C[C@H]1O
> 100 µM

// returns reported TGI for input O=C(O/N=C1/CCC/C1=C\c1ccccc1)c1ccccc1
> 100 µM

// returns reported TGI for input CC(C)C1=CC(=O)C(C)(C2=NC(C)(C)CO2)c2ccccc21 (configuration not stated)
> 100 µM

// returns reported TGI for input N=c1oc2cc(O)c(O)cc2cc1C(N)=O
> 100 µM

// returns reported TGI for input CC1(C)OC(=O)C=C(O)O1.CC1(C)OC(=O)C=C(O)O1.CCO.Oc1ccc2c(c1)CCC2.[Ti]
> 100 µM

// returns reported TGI for input BrC12C3C4C5C(C(C43)C13OCCO3)C52 (configuration not stated)
> 100 µM

// returns reported TGI for input O=C(/C=C\c1cccc2ccccc12)c1ccc(Br)cc1
38.4 µM

// returns reported TGI for input CCC12CC[C@H](C#N)N3CCc4c(n(c5ccccc45)C(=O)C1)C32 (some centres not stated)
43.8 µM

// returns reported TGI for input CN1CCC23c4ccccc4NC1C21CCN(C)C3Nc2ccccc21
> 375 µM

// returns reported TGI for input Cc1ccc(NC(=O)/C(=N/NC(=O)CC#N)C2C(=O)N(c3ccccc3)N=C2N)cc1C (configuration not stated)
> 100 µM

// returns reported TGI for input NC(=S)Nc1nnc(-c2ccc(-c3nnc(NC(N)=S)o3)cc2)o1
> 100 µM

----------
Each item that follows carries a reported TGI.
- Tested on: UO-31 renal
- EXPERIMENTAL_DETAILS: NCI tumour cell line growth inhibition, 48 h

Before answering, review these 4 worked examples.
>>> reported("COC1CCC(OS(C)(=O)=O)CO1 (centres undefined)")
"> 100 µM"
>>> reported("Cn1c(Cc2ccccc2)nc2cc3ccccc3cc21")
"> 100 µM"
>>> reported("O=C(Nc1nc(-c2ccc(Cl)cc2)cs1)c1ccc(O)c(O)c1")
"10.6 µM"
>>> reported("O=C1c2ccccc2-c2ccc(O)cc21")
"32.1 µM"

# ---- query molecule ----
// returns reported TGI for input Cc1ccc(-c2nc3nc(-c4ccc(Cl)cc4)nc(N4CCCNCC4)c3o2)cc1
2.62 µM

----------
- Test system: SK-MEL-28 melanoma
- EXPERIMENTAL_DETAILS: NCI tumour cell line growth inhibition, 48 h
# if value of TGI reaches 20 µM, tag met; if it stays below, tag not met

>>> label_class("Cc1ccc(NC(=O)/C(=N/NC(=O)CC#N)C2C(=O)N(c3ccccc3)N=C2N)cc1C (stereo unspecified)")
"met"
>>> label_class("CO/C=C/c1cc2c(cc1C(OC)OC)OCO2")
"met"
>>> label_class("CCC1=NC(N/N=C/c2ccccc2O)=N/C1=C\\c1ccccc1O")
"met"
>>> label_class("c1cncc(-c2cc(-c3cc(-c4cccnc4)n[nH]3)[nH]n2)c1")
"met"
>>> label_class("CCC12CC[C@H](C#N)N3CCc4c(n(c5ccccc45)C(=O)C1)C32 (stereo partly specified)")
"met"
>>> label_class("O=C(c1cccs1)c1c(C(F)(F)F)n([O-])c2cc(C(F)(F)F)ccc2[n+]1=O")
"not met"
>>> label_class("O=C1c2scnc2-c2nccc3c2c1nc1ccccc13")
"not met"
>>> label_class("CCN(CC)CCN1CCN=c2c3cc(OC)ccc3n3cnc4ccc1c2c43")
"not met"

Record COC1=CC(C)C2C[C@H]3O[C@H](O)C[C@H]4C(C)C(=O)C(O)C([C@@]2(C)C1=O)[C@@]34C (stereo partly specified) ; criterion: TGI no lower than 20 µM. Met?
met

Record CCOC(=O)c1ccc2[nH]c(Cc3[nH]c4ccc(C(=O)OCC)cc4c3C)c(C)c2c1 ; criterion: TGI no lower than 20 µM. Met?
met

Record Cc1ncc([N+](=O)[O-])n1CC(O)Cn1cnc([N+](=O)[O-])n1 (stereo unspecified) ; criterion: TGI no lower than 20 µM. Met?
met

Record O=c1[nH]cnc2c1nnn2[C@@H]1O[C@H](CO)[C@@H](O)[C@H]1O ; criterion: TGI no lower than 20 µM. Met?
met

Record COC1CCC(OS(C)(=O)=O)CO1 (stereo unspecified) ; criterion: TGI no lower than 20 µM. Met?
met

Record Cc1ccc(-c2nc3nc(-c4ccc(Cl)cc4)nc(N4CCCNCC4)c3o2)cc1 ; criterion: TGI no lower than 20 µM. Met?
not met

Record C/C=C/C/C=C/CCC(=O)C1OC1C(N)=O (stereo unspecified) ; criterion: TGI no lower than 20 µM. Met?
met

Provenance of the data: PubChem BioAssay (NCI)
